Ref: patent US20090018106A1

Experiment: Single intravenous dose escalation of P5P, plasma pharmacokinetics (Examples Two and Three)
Type: in vivo, human
Conditions: both sexes, human, plasma, iv, 1 mg/kg, Group 1, P5P 1 mg/kg single iv; plasma PA; mean
outcome.measure: Tmax
Respond with a number, then the unit of measure.

Tell me its Tmax given Cc1ncc(CO)c(C(=O)O)c1O [PA, 4-pyridoxic acid] as the entry. 1.04 h

====

Assay: clinical
Parameters: species or system human
Details: human, in vivo, iv, 10 mg/kg, CLτ (text: CLT, total body clearance)
outcome.measure: clearance (mL/min)
The response must be a number in mL/min with no trailing unit.

Provide only the value of recorded clearance for Cc1ncc(COP(=O)(O)O)c(C=O)c1O [P5P, Pyridoxal 5′-phosphate, reference compound] 42.5
